assay: Solubility of the compound in aqueous buffer at pH 6.5; type: physicochemical
recorded.metric: solubility (µg/mL)
Numbers only; they are read as µg/mL.

In: Fill blank: measured solubility of the compound `O=C(c1cc([C@H]2CCCN2c2cc(F)cc(F)c2)c2oc(N3CCOCC3)cc(=O)c2c1)N1CCOCC1` is ____.
Out: 230

---

molecular target: Phosphatidylinositol 4,5-bisphosphate 3-kinase catalytic subunit alpha isoform (Homo sapiens, UniProt P42336, E545K); experiment: Inhibition of human PI3Kalpha (2 to 1068 residues)/p85 (1 to 724 residues) E545K mutant by ADP Glo HTS assay
Sequence (P42336 whole entry E545K, the tested form may be a part, canonical isoform): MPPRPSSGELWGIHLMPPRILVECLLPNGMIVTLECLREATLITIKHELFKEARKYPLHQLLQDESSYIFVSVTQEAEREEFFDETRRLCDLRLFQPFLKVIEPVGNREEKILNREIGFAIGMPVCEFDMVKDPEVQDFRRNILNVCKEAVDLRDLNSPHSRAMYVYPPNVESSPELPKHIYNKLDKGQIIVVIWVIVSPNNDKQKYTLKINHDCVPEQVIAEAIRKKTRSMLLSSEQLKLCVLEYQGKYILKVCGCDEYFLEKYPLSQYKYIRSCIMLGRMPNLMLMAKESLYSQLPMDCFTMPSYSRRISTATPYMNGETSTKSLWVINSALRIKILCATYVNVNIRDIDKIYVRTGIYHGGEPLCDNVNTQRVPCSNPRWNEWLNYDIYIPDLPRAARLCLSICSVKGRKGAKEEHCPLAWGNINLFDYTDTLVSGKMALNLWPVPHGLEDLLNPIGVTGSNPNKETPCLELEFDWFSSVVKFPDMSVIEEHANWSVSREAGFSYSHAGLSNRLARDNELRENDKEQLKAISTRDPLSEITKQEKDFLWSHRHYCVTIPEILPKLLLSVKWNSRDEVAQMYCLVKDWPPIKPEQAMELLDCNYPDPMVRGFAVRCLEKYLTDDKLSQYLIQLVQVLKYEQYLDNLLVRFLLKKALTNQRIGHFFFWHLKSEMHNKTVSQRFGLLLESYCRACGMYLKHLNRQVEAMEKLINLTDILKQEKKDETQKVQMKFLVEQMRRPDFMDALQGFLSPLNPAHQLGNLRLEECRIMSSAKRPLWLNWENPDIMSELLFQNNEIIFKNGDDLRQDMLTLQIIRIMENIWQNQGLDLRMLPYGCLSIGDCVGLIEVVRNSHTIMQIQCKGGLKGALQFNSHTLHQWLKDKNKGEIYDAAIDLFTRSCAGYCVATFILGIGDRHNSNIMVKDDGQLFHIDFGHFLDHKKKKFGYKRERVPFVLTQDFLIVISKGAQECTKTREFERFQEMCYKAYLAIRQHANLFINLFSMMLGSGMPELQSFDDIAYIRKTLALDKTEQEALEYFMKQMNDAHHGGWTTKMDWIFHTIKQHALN
pIC50: −log10 of the molar value.
recorded.metric: pIC50

In: Which measured pIC50 value corresponds to `O=C(c1cc([C@H]2CCCN2c2cc(F)cc(F)c2)c2oc(N3CCOCC3)cc(=O)c2c1)N1CCOCC1` ?
Out: < 4.30

---

biological target: Voltage-gated inwardly rectifying potassium channel KCNH2 (Homo sapiens, UniProt Q12809)
Sequence (Q12809 whole entry): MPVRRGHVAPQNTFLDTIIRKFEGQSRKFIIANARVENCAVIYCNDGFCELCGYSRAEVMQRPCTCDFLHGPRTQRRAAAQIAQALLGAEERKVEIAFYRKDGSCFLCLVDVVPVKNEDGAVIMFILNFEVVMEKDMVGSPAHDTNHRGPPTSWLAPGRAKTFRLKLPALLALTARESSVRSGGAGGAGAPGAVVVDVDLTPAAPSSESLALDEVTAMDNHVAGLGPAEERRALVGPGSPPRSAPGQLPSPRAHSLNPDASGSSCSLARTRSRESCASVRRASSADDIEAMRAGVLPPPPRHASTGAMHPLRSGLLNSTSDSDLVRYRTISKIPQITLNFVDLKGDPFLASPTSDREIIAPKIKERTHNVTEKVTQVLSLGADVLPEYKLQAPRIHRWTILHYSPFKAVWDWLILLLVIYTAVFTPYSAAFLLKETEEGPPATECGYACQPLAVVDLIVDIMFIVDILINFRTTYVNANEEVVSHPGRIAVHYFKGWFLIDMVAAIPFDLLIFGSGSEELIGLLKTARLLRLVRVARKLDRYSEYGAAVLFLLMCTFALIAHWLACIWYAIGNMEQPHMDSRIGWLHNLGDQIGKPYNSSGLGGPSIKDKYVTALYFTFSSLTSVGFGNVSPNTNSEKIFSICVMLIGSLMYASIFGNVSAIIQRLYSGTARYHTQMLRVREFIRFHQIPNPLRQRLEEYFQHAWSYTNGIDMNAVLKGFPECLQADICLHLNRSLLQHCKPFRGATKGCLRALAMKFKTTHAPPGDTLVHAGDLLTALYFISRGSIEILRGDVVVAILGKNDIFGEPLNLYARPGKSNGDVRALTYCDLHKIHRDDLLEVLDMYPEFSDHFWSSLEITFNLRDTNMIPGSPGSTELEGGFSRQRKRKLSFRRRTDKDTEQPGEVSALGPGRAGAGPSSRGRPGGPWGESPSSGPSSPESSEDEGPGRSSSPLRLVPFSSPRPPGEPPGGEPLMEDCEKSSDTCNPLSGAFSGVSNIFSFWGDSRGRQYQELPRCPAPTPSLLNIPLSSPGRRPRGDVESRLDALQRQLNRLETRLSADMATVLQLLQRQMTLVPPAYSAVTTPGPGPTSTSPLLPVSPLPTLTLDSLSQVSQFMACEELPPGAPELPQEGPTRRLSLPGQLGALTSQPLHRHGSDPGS
recorded.metric: pIC50
Convention used: pIC50 is expressed as -log10 of the molar concentration.

In: Endpoint output: pIC50 of `O=C(c1cc([C@H]2CCCN2c2cc(F)cc(F)c2)c2oc(N3CCOCC3)cc(=O)c2c1)N1CCOCC1` . Value?
Out: 4.35

---

Assign hepatocyte CLint to each entry below.
assay: Intrinsic clearance in human hepatocytes assessed per million cells; assay type: ADME, cell-based, Hepatocyte; settings: read-out: CLH

In: Which hepatocyte CLint value belongs to O=C(c1cc(C2CCCN2c2cc(F)cc(F)c2)c2oc(N3CCOCC3)cc(=O)c2c1)N1CCC(O)CC1 (racemic) ?
Out: < 3 µL/min/1e6 cells

In: Then this compound: `O=C(c1cc([C@H]2CCCN2c2cc(F)cc(F)c2)c2oc(N3CCOCC3)cc(=O)c2c1)N1CCOCC1`
Out: 2.7 to 5 µL/min/1e6 cells

In: // same read-out, input: `CN(C)C(=O)c1cc([C@H]2CCCN2c2cccc(F)c2)c2oc(N3CCOCC3)cc(=O)c2c1`
Out: 15 µL/min/1e6 cells
